Each record here notes measured TGI.
system: OVCAR-8 ovarian; experiment: NCI tumour cell line growth inhibition, 48 h

INSERT INTO results (compound, measured_target, observable, result) VALUES
  ('COC(=O)CSc1[nH]c2nc(C)nc(Nc3ccccc3)c2c1C#N', 'OVCAR-8 ovarian', 'TGI', '> 10 µM');

Read the next record carefully.
[in] Look at this compound and give its reported TGI. CCOc1ccc(N=NC2C(=O)N(C(=O)CC(=O)Nc3ccc(Cl)cc3)N=C2C)cc1 (stereo not given)
[out] > 100 µM

###

Each record here notes measured TGI.
test system: HL-60(TB) leukemia; test: NCI tumour cell line growth inhibition, 48 h

INSERT INTO assay_data (compound, measured_target, result) VALUES
  ('C[n+]1c2ccccc2c(NC2CCNCC2)c2[nH]c3ccccc3c21', 'HL-60(TB) leukemia', '> 22.6 µM'),
  ('CCOC1NC(=O)Oc2ccccc21 (stereo unspecified)', 'HL-60(TB) leukemia', '> 100 µM'),
  ('CC(=O)OC1COC(N2C(=O)C(=O)c3cc(Br)c([N+](=O)[O-])cc32)C(OC(C)=O)C1OC(C)=O (stereo unspecified)', 'HL-60(TB) leukemia', '> 100 µM'),
  ('COc1cc(/C=C/C(=O)c2ccc(Nc3nc(Nc4ccc(F)cc4)nc(Nc4ccc(F)cc4)n3)cc2)cc(OC)c1OC', 'HL-60(TB) leukemia', '> 100 µM'),
  ('COC(=O)C1Cc2c([nH]c3ccccc23)C=N1 (stereo unspecified)', 'HL-60(TB) leukemia', '> 100 µM');

Read the next record carefully.
[in] Look at this compound and give its reported TGI. Brc1ccc(-c2ccc(-c3ccc(Br)s3)s2)s1
[out] > 100 µM

###

system: OVCAR-4 ovarian; experiment: NCI tumour cell line growth inhibition, 48 h
observable: TGI

INSERT INTO assay_data (compound, measured_target, observable, result) VALUES
  ('COc1cc(/C=C\c2ccc(SC)cc2)cc(OC)c1OC', 'OVCAR-4 ovarian', 'TGI', '> 100 µM'),
  ('CC1SC(c2cccs2)N(NC(=O)C(O)c2ccccc2)C1=O (stereo not drawn)', 'OVCAR-4 ovarian', 'TGI', '> 100 µM');

Read the next record carefully.
[in] Look at this compound and give its reported TGI. Cc1cccc(Nc2cn(CCOc3ccccc3)c(=O)[nH]c2=O)c1
[out] > 100 µM

###

test system: MOLT-4 leukemia; experiment: NCI tumour cell line growth inhibition, 48 h
observable: TGI

Completed entries (count: 2):
INSERT INTO measurements (molecule, observable, result) VALUES
  ('CC1SC(c2cccs2)N(NC(=O)C(O)c2ccccc2)C1=O (stereo not given)', 'TGI', '> 100 µM'),
  ('O=C(O)CCCN1CCCCC1', 'TGI', '> 100 µM');

[in] Look at this molecule and give its reported TGI. S=C1c2cc(Cl)ccc2NC(=NC2CCCC2)C2CSCN12 (stereo not given)
[out] > 100 µM

[in] Okay, and Cc1c2cc[n+](C)cc2c(COC2OC(CO)C(O)C2O)c2c3ccccc3n(C)c12 (stereo not given) ?
[out] > 100 µM

[in] Okay, and O=c1c2ccccc2nc(-c2ccc(Cl)cc2)n1O ?
[out] > 100 µM

[in] Okay, and CCN(CC)P1(=S)Oc2ccc3ccccc3c2-c2c(ccc3ccccc23)O1 ?
[out] > 100 µM

[in] Okay, and CC(C)(C)[C@@H]1NC(=O)CN1C(=O)OCc1ccccc1 ?
[out] > 100 µM

###

system: A498 renal; test: NCI tumour cell line growth inhibition, 48 h
observable: TGI

Completed entries (count: 5):
INSERT INTO assay_data (compound, measured_target, result) VALUES
  ('O=C1NC(=NCc2ccccn2)S/C1=C\c1ccc2ncccc2c1', 'A498 renal', '> 18.8 µM'),
  ('O=C1C(c2ccccc2)=C(c2ccccc2)C(c2ccccc2)/C1=C1\C(=O)C(c2ccccc2)=C(c2ccccc2)C1c1ccccc1 (centres undefined)', 'A498 renal', '> 100 µM'),
  ('COC(=O)c1c(C)nc(C)c(N=O)c1-c1ccccc1C(F)(F)F', 'A498 renal', '> 100 µM'),
  ('COc1cc(/C=C\c2ccc(SC)cc2)cc(OC)c1OC', 'A498 renal', '> 54.1 µM'),
  ('CCCCCCc1cc(C=O)sc1-c1ccc(-c2sc(-c3ccc(-c4ccc(-c5cc(CCCCCC)c(-c6ccc(-c7sc(C=O)cc7CCCCCC)s6)s5)s4)s3)cc2CCCCCC)s1', 'A498 renal', '> 100 µM');

[in] Form field: TGI recorded for CCC1=C(C)C2=NC1=CC1=NC(=C(CC)/C1=C/O)C=C1N=C3C(=C1C)C(=O)C(C(=O)OC)C3=C1NC(=C2)C(C)C1CCC(=O)OC (centres undefined) with A498 renal (enter value)
[out] > 100 µM

[in] Okay, and COc1ccc2c(c1)CC[C@@H]1C2CC[C@]2(C)OC(=O)CCC12 (some centres undefined) ?
[out] > 100 µM

[in] Okay, and CCOC1NC(=O)Oc2ccccc21 (centres undefined) ?
[out] > 100 µM

[in] Okay, and c1ccc(COc2nc3ccc(C45CC6CC(CC(C6)C4)C5)cc3[nH]2)cc1 ?
[out] > 100 µM

###

Each record here notes measured TGI.
test system: HS 578T breast; assay: NCI tumour cell line growth inhibition, 48 h
A number alone suffices; assume µM.

Completed entries (count: 3):
INSERT INTO measurements (smiles_representation, observable, number) VALUES
  ('O=Nc1c(-c2cccc([N+](=O)[O-])c2)nc2ncccn12', 'TGI', 47.4),
  ('COc1cc(O)c(C(=O)/C=C/c2ccc(O)cc2)cc1Oc1ccc(C(=O)/C=C/c2ccc(O)cc2)c(O)c1', 'TGI', 82.8),
  ('Cc1ccc(Cl)cc1Nc1nc(C(F)(F)F)ccc1C(=O)Oc1ccc(Cl)cc1', 'TGI', 14.8);

Read the next record carefully.
[in] Look at this compound and give its reported TGI. Cn1c2ccccc2c2c3c(c4c5ccccc5n(CCCCCC#N)c4c21)C(=O)N(O)C3=O
[out] 41.9

###

test system: HCT-15 colon; assay: NCI tumour cell line growth inhibition, 48 h
Where a SMILES comes first, the peptide text is derived from it. [ ]: non-standard residue; d: D form. The star is where a group is joined. X28 = COC1=CC(=O)N(C(=O)[C@@H](O*)C(C)C)[C@H]1Cc1ccccc1; NMeL = CN[C@@H](CC(C)C)C(=O)O; Hexanoyl = CCCCCC(=O)*
Each record here notes measured TGI.

Completed entries (count: 4):
INSERT INTO assay_data (compound, observable, result) VALUES
  ('CCCCc1cc2c(cc1O)CCC1C2CC[C@@]2(C)C1CC[C@@H]2O (some centres undefined)', 'TGI', '> 100 µM'),
  ('CCC1OC2C(CC=C(C)C)=C3OC(C)(O)C(C)(CC)C(O)C3=C3OC(=O)C=C1C32 (centres undefined)', 'TGI', '> 100 µM'),
  ('CC1=C(C)C(=O)C(C(C)C2=C(C)C(=O)C(C)=C(C)C2=O)=C(C)C1=O', 'TGI', '> 100 µM'),
  ('CC(=O)OCc1ccc(-c2nc(C#N)c(N)o2)o1', 'TGI', '> 10 µM');

[in] Form field: TGI recorded for COc1cccc2c1C(=O)c1c(O)c3c(c(O)c1C2=O)C[C@@](O)(C(C)=O)C[C@@H]3OC1CC(N)C(O)C(C)O1 (some centres undefined) with HCT-15 colon (enter value)
[out] 8.07 µM [middle of 6 runs]

[in] Okay, and CCCCCC(=O)N[C@H](C(=O)N[C@H](C(=O)N(C)[C@@H](CC(C)C)C(=O)N1CCC[C@H]1C(=O)N1CCC[C@H]1C(=O)O[C@H](C(=O)N1C(=O)C=C(OC)[C@@H]1Cc1ccccc1)C(C)C)C(C)C)C(C)C (Hexanoyl-VV[NMeL]PP-X28) ?
[out] > 100 µM

[in] Okay, and C[n+]1c2ccccc2c(NC2CCNCC2)c2[nH]c3ccccc3c21 ?
[out] > 46 µM

[in] Okay, and Cc1cc(SCC(=O)c2ccc(Br)cc2)cc(C)[o+]1 ?
[out] > 100 µM

[in] Okay, and Cn1cccc1-c1cc(-c2ccc(Br)cc2)nc(N)c1C#N ?
[out] > 100 µM

###

tested on: MDA-MB-231 breast; experiment: NCI tumour cell line growth inhibition, 48 h
Each record here notes measured TGI.

[in] Look at this molecule and give its reported TGI. CC(C)(C)[C@@H]1NC(=O)CN1C(=O)OCc1ccccc1
[out] > 100 µM

[in] Okay, and COc1cccc(-n2nnc3c(N)nc(N)nc32)c1 ?
[out] > 100 µM

[in] Okay, and COc1cc2c(cc1-c1c(C)noc1C)ncc1nc(C3CCCCC3)n(C3CCC(OC(F)F)CC3)c12 (stereo not drawn) ?
[out] > 100 µM
